SYSTEM UNDER TEST: human recombinant dopamine D2 receptor (Homo sapiens (Human))
Sequence (P14416 whole entry): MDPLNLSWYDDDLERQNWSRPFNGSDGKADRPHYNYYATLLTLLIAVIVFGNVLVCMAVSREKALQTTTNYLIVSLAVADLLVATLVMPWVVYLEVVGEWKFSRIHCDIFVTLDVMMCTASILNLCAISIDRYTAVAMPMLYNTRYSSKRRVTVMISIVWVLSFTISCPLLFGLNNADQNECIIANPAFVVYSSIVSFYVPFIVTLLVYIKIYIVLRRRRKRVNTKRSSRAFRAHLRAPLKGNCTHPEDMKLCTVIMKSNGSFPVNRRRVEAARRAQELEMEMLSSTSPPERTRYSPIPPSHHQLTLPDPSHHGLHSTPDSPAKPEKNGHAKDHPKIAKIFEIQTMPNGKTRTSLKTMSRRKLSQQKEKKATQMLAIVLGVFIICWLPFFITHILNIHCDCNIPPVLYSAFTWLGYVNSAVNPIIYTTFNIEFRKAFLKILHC
MEASUREMENT NOTES: Test of binding inhibition for the human dopamine D2 receptor ([3H]-Metylspiperone SPA binding)
TEST CONTEXT: [3H]-Metylspiperone 1.2 nM, Jump-In HEK cell membranes, read-out: hD2_Ki
Method: Cell membranes: Jump-In HEK cell membranes expressing human recombinant dopamine D2 receptor (2 μg/well) […] 225 nL of the solutions of the non-specific ligand or the compounds of the present invention at each concentration (in case of vehicle, final concentration 0.3% DMSO) were added in each well of a 384-well white/clear bottom microplate (3706, Corning). […] Non-specific binding was calculated based on the radioactivity of [^3H]-Metylspiperone in the presence of 10 μM non-labeled Butaclamol. […]
pKi: −log10 of the molar value.
MEASUREMENT LABEL: pKi

>  <SMILES DATA>
CCn1c(C(=O)N[C@H]2CC[C@H](CCN3CCc4ccc(OCC(F)(F)F)nc4CC3)CC2)cccc1=O

>  <pKi>
6.64

$$$$

I = CCN1Cc2c(C(=O)N[C@H]3CC[C@H](CCN4CCc5ccc(OCC(F)(F)F)nc5CC4)OC3)cccc2C1=O
II = Cc1ncc(CC(=O)N[C@H]2CC[C@H](CCN3CCc4sc(CCC(F)(F)F)nc4C3)CC2)o1
Incoming: Record comparison, field pKi: mark the lower of I and II . Bench note: the answer is the label of the chosen record.
Outgoing: II

====

SYSTEM UNDER TEST: human recombinant dopamine D2 receptor (Homo sapiens (Human))
MEASUREMENT NOTES: Test of binding inhibition for the human dopamine D2 receptor ([3H]-Metylspiperone SPA binding)
TEST CONTEXT: [3H]-Metylspiperone 1.2 nM, Jump-In HEK cell membranes, read-out: hD2_Ki
pKi: −log10 of the molar value.
MEASUREMENT LABEL: pKi

>  <MOLECULE>
Cn1cc2c(C(=O)NC3CC4(CC(CCN5CCc6sc(OCC(C)(F)F)nc6C5)C4)C3)cccc2n1 (single isomer, unassigned)

>  <pKi>
6.40

$$$$
>  <MOLECULE>
Cc1ncc(OCC(=O)N[C@H]2CC[C@](F)(CCN3CCc4nc(OCC(F)(F)F)sc4CC3)CC2)cn1

>  <pKi>
6.24

$$$$

a = Cc1ncc(CC(=O)N[C@H]2CC[C@H](CCN3CCc4sc(OCC(C)(F)F)nc4C3)CC2)o1
b = Cc1ncc(CC(=O)N[C@H]2CC[C@H](CCN3CCc4nc(OCC(C)(F)F)sc4CC3)CC2)o1
Incoming: Record comparison, field pKi: mark the lower of a and b . Bench note: the answer is the label of the chosen record.
Outgoing: b
(b: 5.89, a: 6.19)

====

SYSTEM UNDER TEST: human recombinant dopamine D3 receptor (Homo sapiens (Human), UniProt P35462)
Sequence (P35462 whole entry): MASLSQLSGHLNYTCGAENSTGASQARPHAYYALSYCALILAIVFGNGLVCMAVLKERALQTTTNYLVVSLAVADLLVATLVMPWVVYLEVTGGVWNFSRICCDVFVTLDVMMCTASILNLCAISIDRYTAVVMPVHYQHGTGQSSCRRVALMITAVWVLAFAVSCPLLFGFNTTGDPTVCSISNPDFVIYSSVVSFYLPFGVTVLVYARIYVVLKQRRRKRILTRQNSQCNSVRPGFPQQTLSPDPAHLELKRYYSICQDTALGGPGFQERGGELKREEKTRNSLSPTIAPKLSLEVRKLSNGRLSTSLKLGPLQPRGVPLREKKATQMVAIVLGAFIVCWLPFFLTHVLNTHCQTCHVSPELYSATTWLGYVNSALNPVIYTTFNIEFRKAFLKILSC
MEASUREMENT NOTES: Test of binding inhibition for the human dopamine D3 receptor ([3H]-Metylspiperone SPA binding)
TEST CONTEXT: [3H]-Metylspiperone 2 nM, Jump-In HEK cell membranes, read-out: hD3_Ki
MEASUREMENT LABEL: Ki (nM)

P = Cc1ncc(CC(=O)N[C@H]2CC[C@H](CCN3CCc4cn(CCC(F)(F)F)nc4CC3)CC2)s1
Q = Cn1cc(CC(=O)N[C@H]2CC[C@](F)(CCN3CCc4ccc(OCC(F)(F)F)nc4CC3)CC2)cn1
R = Cc1ncc(OCC(=O)N[C@H]2CC[C@](F)(CCN3CCc4ccc(OCC(F)(F)F)nc4CC3)CC2)cn1
Incoming: Using the recorded Ki, list the entries above from smallest to largest. Answer by listing the labels in the order asked for.
Outgoing: Q, R, P
